System Tested: recombinant human PAI-1 (Homo sapiens)
Assay Details: biochemical
Test Parameters: read-out: Inhibition Rate of PAI-1 Activity (%)
Property: inhibition at 10 µM; scope: individual compounds
Entry rule: numbers only, all in %.

Record excerpt, results attached:
# Compound, U, inhibition at 10 µM
rows = [
    ("CC(C)(C)c1ccc(Oc2cccc(-c3ccc(OC(F)(F)F)cc3)c2/C=C/C(=O)O)cc1 [Compound 93]", "%", 87),
    ("CCCCc1ccc(-c2ccc(N(Cc3ccc(C(C)(C)C)cc3)C(=O)C(=O)O)cc2)cc1 [Compound 164]", "%", 79),
    ("CCCCOc1ccc(-c2ccc(OC(F)(F)F)cc2)cc1N(CCCc1ccccc1)C(=O)C(=O)O [Compound 235]", "%", 89),
]

Sample CCN(CC)c1ccc(N(Cc2ccc(C(C)(C)C)cc2)C(=O)C(=O)O)cc1-c1ccc(OC(F)(F)F)cc1 [Compound 213] ; inhibition at 10 µM observed: 84

The measured inhibition at 10 µM associated with COc1ccc(CN(C(=O)C(=O)O)c2ccc(-c3ccc(OC(F)(F)F)cc3)cc2)cc1 [Compound 131] reads 10

inhibition at 10 µM recorded for this compound, O=C(O)C(=O)N(CCc1ccccc1)c1ccc(-c2ccc(OC(F)(F)F)cc2)cc1 [Compound 223] , is 27

Measured inhibition at 10 µM, CC(C)(C)c1ccc(CN(C(=O)C(=O)O)c2ccc(Nc3ccc(OC(F)(F)F)cc3)cc2)cc1 [Compound 626] : 77

The reported inhibition at 10 µM of the compound O=C(O)C(=O)N(CCCc1ccccc1)c1ccc(-c2ccc(OC(F)(F)F)cc2)cc1 [Compound 224] was 53

Per the record, CC(C)(C)c1ccc(CN(C(=O)C(=O)O)c2ccc(N3CCOCC3)c(-c3ccc(OC(F)(F)F)cc3)c2)cc1 [Compound 216] has inhibition at 10 µM of 88

Record summary for CC(C)(Oc1cc(-c2ccc(OC(F)(F)F)cc2)ccc1OCCCCc1ccccc1)C(=O)O [Compound 116] : reported inhibition at 10 µM = 81

The compound listed as CC(C)(C)Oc1ccc(N(CCCCc2ccccc2)C(=O)C(=O)O)cc1-c1ccc(OC(F)(F)F)cc1 [Compound 249] shows inhibition at 10 µM equal to 89

// COc1ccc(-c2ccc(OC(F)(F)F)cc2)cc1N(Cc1ccc(C(C)(C)C)cc1)C(=O)C(=O)O [Compound 182] : inhibition at 10 µM value = 85

// sample CC(C)(C)c1ccc(COc2cccc(Oc3ccc(OC(F)(F)F)cc3)c2/C=C/C(=O)O)cc1 [Compound 85] , its inhibition at 10 µM was 61

Measured inhibition at 10 µM, CC(C)(C)c1ccc(CN(C(=O)C(=O)O)c2ccccc2Oc2ccc(OC(F)(F)F)cc2)cc1 [Compound 153] : 54

// inhibition at 10 µM value for CC(C)(C)c1ccc(CN(C(=O)C(=O)O)c2ccc(OCc3ccc(OC(F)(F)F)cc3)cc2)cc1 [Compound 616] : 83

###

This section presents compounds with their documented inhibition at 1 µM values.
System Tested: recombinant rat PAI-1 (Rattus norvegicus, UniProt P20961)
Sequence (P20961 24-402): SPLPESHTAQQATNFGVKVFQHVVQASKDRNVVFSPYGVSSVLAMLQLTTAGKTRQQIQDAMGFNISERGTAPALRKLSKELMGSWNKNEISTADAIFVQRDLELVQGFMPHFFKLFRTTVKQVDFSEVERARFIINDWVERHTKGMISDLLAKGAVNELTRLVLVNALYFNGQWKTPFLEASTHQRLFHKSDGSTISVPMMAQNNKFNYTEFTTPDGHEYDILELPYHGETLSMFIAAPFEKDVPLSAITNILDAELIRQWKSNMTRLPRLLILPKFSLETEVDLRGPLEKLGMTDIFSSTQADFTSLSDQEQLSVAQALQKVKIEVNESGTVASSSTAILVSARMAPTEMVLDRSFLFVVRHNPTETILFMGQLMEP
Assay Details: biochemical
Test Parameters: read-out: Inhibition Rate of PAI-1 Activity (%)
Express your answer in %, writing the number without its unit.

The cases that follow already have their inhibition at 1 µM on record.
# Compound, Readout Name, Assay Result
data = [
    ("CC(C)(C)c1ccc(COc2cccc(Oc3ccc(OC(F)(F)F)cc3)c2CCC(=O)O)cc1 [Compound 86]", "inhibition at 1 µM", 12),
    ("CCC(CC)Oc1ccc(-c2ccc(OC(F)(F)F)cc2)cc1N(Cc1ccc(C(C)(C)C)cc1)C(=O)C(=O)O [Compound 199]", "inhibition at 1 µM", 35),
    ("CCCCOc1ccc(N(CCCCc2ccccc2)C(=O)C(=O)O)cc1-c1ccc(OC(F)(F)F)cc1 [Compound 227]", "inhibition at 1 µM", 14),
    ("CCN(CC)c1ccc(N(Cc2ccc(C(C)(C)C)cc2)C(=O)C(=O)O)cc1-c1ccc(OC(F)(F)F)cc1 [Compound 213]", "inhibition at 1 µM", 26),
    ("CC(C)(C)c1ccc(CN(C(=O)C(=O)O)c2ccc(-c3ccc(OC(F)(F)F)cc3)cc2Cl)cc1 [Compound 147]", "inhibition at 1 µM", 14),
    ("Cc1cc(N(C)C)c(-c2ccc(OC(F)(F)F)cc2)cc1N(Cc1ccc(C(C)(C)C)cc1)C(=O)C(=O)O [Compound 215]", "inhibition at 1 µM", 16),
]

Would you kindly look at the next entry?
The compound identified as CCCOc1ccc(N(Cc2ccc(C(C)(C)C)cc2)C(=O)C(=O)O)cc1-c1ccc(OC(F)(F)F)cc1 [Compound 185] registered its inhibition at 1 µM at 17

###

In this section, each of the compounds is paired with its reported inhibition at 3 µM.
System Tested: recombinant human PAI-1 (Homo sapiens, UniProt P05121)
Sequence (P05121 24-402): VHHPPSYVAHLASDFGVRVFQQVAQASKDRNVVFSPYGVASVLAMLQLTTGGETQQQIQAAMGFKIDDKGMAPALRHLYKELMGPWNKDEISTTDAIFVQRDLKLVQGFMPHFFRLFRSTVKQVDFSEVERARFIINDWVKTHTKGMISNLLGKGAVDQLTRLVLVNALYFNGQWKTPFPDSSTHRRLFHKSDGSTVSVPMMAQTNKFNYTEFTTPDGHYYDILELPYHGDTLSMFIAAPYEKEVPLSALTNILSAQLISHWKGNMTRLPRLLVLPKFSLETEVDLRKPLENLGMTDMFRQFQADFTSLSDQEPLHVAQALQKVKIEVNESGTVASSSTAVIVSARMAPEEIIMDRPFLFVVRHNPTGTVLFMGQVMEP
Assay Details: Test Example 2: Human PAI-1 Inhibitory Activity (pH 7.4 HEPES buffer, 10 minutes incubation with two-chain tPA)
Assay type: biochemical
Set-up: purchased Molecular Innovations, Inc
Test Parameters: read-out: Inhibition Rate of PAI-1 Activity (%)

Sample answers from the record:
# Compound, Readout Name, Assay Result
records = [
    ("CCC(CC)Oc1ccc(-c2ccc(OC(F)(F)F)cc2)cc1N(Cc1ccc(C(C)(C)C)cc1)C(=O)C(=O)O", "inhibition at 3 µM", "> 99%"),
    ("CC(C)(C)c1cccc(Oc2cc(-c3ccc(OC(F)(F)F)cc3)ccc2/C=C/C(=O)O)c1", "inhibition at 3 µM", "> 99%"),
    ("CCCCC(c1ccc(C(C)(C)C)cc1)N(C(=O)C(=O)O)c1ccc(-c2ccc(OC(F)(F)F)cc2)cc1 (stereo not shown)", "inhibition at 3 µM", "> 99%"),
]

The record that follows has no inhibition at 3 µM shown yet.
inhibition at 3 µM in this record for CCCCc1ccc(Oc2cc(-c3ccc(OC(F)(F)F)cc3)ccc2OCC(=O)O)cc1 : > 99%

###

System Tested: recombinant human PAI-1 (Homo sapiens)
Assay Details: Test Example 2: Human PAI-1 Inhibitory Activity (pH 7.4 HEPES buffer, 10 minutes incubation with two-chain tPA)
Format: biochemical
Parameters: purchased Molecular Innovations, Inc
Test Parameters: read-out: Inhibition Rate of PAI-1 Activity (%)
Method: 0.1 M HEPES, 0.1 M NaCl. 1 mM EDTA. 0.1 % Polyethylene glycol 8,000 (Hampton Research Corporation), 2 mM Dimethyldecylphoshine oxide [Apo-10] (Fluka Corporation)
Recorded inhibition at 0.3 µM for the following compounds
# value in %; strip the unit string

# Structure String, Assay Result
rows = [
    ("CCN(CC)c1ccc(N(Cc2ccc(C(C)(C)C)cc2)C(=O)C(=O)O)cc1-c1ccc(OC(F)(F)F)cc1", 10),
    ("CC(C)(C)c1ccc(Cc2cc(-c3ccc(OC(F)(F)F)cc3)ccc2OCC(=O)O)cc1", 2),
    ("CC(C)(C)[C@H]1CC[C@@H](CN(C(=O)C(=O)O)c2ccc(-c3ccc(OC(F)(F)F)cc3)cc2)CC1", 9),
    ("CC(C)(C)c1ccc(Oc2ccc(-c3cccc(C(F)(F)F)c3)cc2OCC(=O)O)cc1", 5),
    ("CCCCCOc1ccc(-c2ccc(OC(F)(F)F)cc2)cc1N(Cc1ccc(C(C)(C)C)cc1)C(=O)C(=O)O", 7),
]

# inhibition at 0.3 µM measured on recombinant human PAI-1 (Homo sapiens) for item CC(C)(C)c1ccc(Oc2cc(-c3ccccc3OC(F)(F)F)ccc2OCC(=O)O)cc1 = 13

Summary: CC(C)c1ccc(-c2ccc(/C=C/C(=O)O)c(Sc3ccc(C(C)(C)C)cc3)c2)cc1 , recombinant human PAI-1 (Homo sapiens), inhibition at 0.3 µM = 72

The reported inhibition at 0.3 µM value, recombinant human PAI-1 (Homo sapiens), for CCCCCOc1ccc(-c2cccc(C(F)(F)F)c2)cc1N(CCCCc1ccccc1)C(=O)C(=O)O reads 7

###

inhibition at 5 µM reference
System Tested: recombinant human PAI-1 (Homo sapiens)
Assay Details: biochemical
Test Parameters: read-out: Inhibition Rate of PAI-1 Activity (%)
Give your result in % as a bare value.

# Structure String, System Tested, inhibition at 5 µM / %
rows = [
    ("CC(C)(C)c1ccc(CN(C(=O)C(=O)O)c2ccc(Nc3ccc(OC(F)(F)F)cc3)cc2)cc1", "recombinant human PAI-1 (Homo sapiens)", 42),
    ("CC(C)(C)c1ccc(COc2c(Cl)cc(-c3ccc(OC(F)(F)F)cc3)cc2CCC(=O)O)cc1", "recombinant human PAI-1 (Homo sapiens)", 25),
    ("CC(C)(C)c1ccc(COc2cc(CCC(=O)O)cc(Oc3ccc(OC(F)(F)F)cc3)c2)cc1", "recombinant human PAI-1 (Homo sapiens)", 37),
    ("CC(C)(C)c1ccc(CN(C(=O)C(=O)O)c2ccc(-c3ccc(OC(F)(F)F)cc3)c(C(F)(F)F)c2)cc1", "recombinant human PAI-1 (Homo sapiens)", 44),
    ("CC(C)(Oc1ccc(-c2ccc(OC(F)(F)F)cc2)cc1Oc1ccc(C(C)(C)C)cc1)C(=O)O", "recombinant human PAI-1 (Homo sapiens)", 37),
]

O=C(O)CCc1cc(OCc2ccc(OC(F)(F)F)cc2)ccc1OCc1ccc(OC(F)(F)F)cc1 yielded inhibition at 5 µM of 14

Per the records, this compound ( CN(C)c1ccc(N(Cc2ccc(C(C)(C)C)cc2)C(=O)C(=O)O)cc1-c1ccc(OC(F)(F)F)cc1 ) has inhibition at 5 µM equal to 87

Given item CC(C)c1ccc(Oc2ccc(/C=C/C(=O)O)c(Oc3ccc(C(C)C)cc3)c2)cc1 , the value recorded as its inhibition at 5 µM is 32

Summary for this compound, CC(C)(C)c1ccc(CN(C(=O)C(=O)O)c2ccc(N3CCCCC3)c(-c3ccc(OC(F)(F)F)cc3)c2)cc1 : inhibition at 5 µM is 86

CCCOc1ccc(N(CCCCc2ccccc2)C(=O)C(=O)O)cc1-c1ccc(OC(F)(F)F)cc1 has a reported inhibition at 5 µM of 62

Per the records, this compound ( CC(C)(C)c1ccc(-c2ccc(Oc3ccc(-c4ccc(OC(F)(F)F)cc4)cc3/C=C/C(=O)O)c(CCC(=O)O)c2)cc1 ) has inhibition at 5 µM equal to 75

Please fill in: inhibition at 5 µM reported for CC(C)(C)c1ccc(CN(C(=O)C(=O)O)c2ccccc2OCc2ccc(OC(F)(F)F)cc2)cc1 = 41

The compound listed as O=C(O)C(=O)N(CCCCCc1ccccc1)c1ccc(-c2ccc(OC(F)(F)F)cc2)cc1 shows inhibition at 5 µM equal to 45

Memo: CCCCOc1ccc(-c2ccc(OC(F)(F)F)cc2)cc1N(CCCc1ccccc1)C(=O)C(=O)O , reported inhibition at 5 µM: 66

So for CC(C)(C)c1ccc(Oc2cc(-c3ccc(OC(F)(F)F)cc3)ccc2/C=C/C(=O)O)cc1 , the logged inhibition at 5 µM turned out to be 39
